Overview of recorded inhibition of SARS-CoV-2 cytopathic effect for various compounds
# Test system: Vero E6 infected with SARS-CoV-2
# ASSAY: inhibition of SARS-CoV-2 cytopathic effect; higher = more antiviral protection, active = above 15
# ASSAY SETUP: 833.33 nM; 48 h
MEASURE: inhibition of SARS-CoV-2 cytopathic effect (%)

• Cc1coc2c1C(=O)C(=O)c1c-2ccc2c(C)cccc12 = -2.81
• O=C(c1ccc(OCCCc2c[nH]cn2)cc1)C1CC1 = 9.43
• CCC[C@@H]1C[C@@H](C(=O)N[C@@H]([C@H]2O[C@H](SC)[C@H](O)[C@@H](O)[C@H]2O)[C@H](C)Cl)N(C)C1 = -2.28
• C=CC(=O)Nc1cccc(Oc2nc(Nc3ccc(N4CCN(C)CC4)cc3OC)ncc2Cl)c1 = -9.12
• C[C@@H]1CC[C@@]2(OC1)O[C@H]1C[C@H]3[C@@H]4CC=C5C[C@@H](O)CC[C@]5(C)[C@H]4CC[C@]3(C)[C@H]1[C@@H]2C = -2.38
• Nc1nc(Nc2ccccc2)nc2c1ncn2[C@@H]1O[C@H](CO)[C@@H](O)[C@H]1O = 1.06
• NS(=O)(=O)c1cc(-c2nnn[nH]2)c(NCc2cccs2)cc1Cl [azosemide] = 9.99
• NCC(=O)CCC(=O)O = -0.73

---

# Test system: Vero E6 infected with SARS-CoV-2
# ASSAY: inhibition of SARS-CoV-2 cytopathic effect; higher = more antiviral protection, active = above 15
# ASSAY SETUP: 100 nM; 48 h
Recorded measurements of inhibition of SARS-CoV-2 cytopathic effect, one per entry
MEASURE: inhibition of SARS-CoV-2 cytopathic effect (%)

* Nc1nc(NC2CC2)c2ncn([C@H]3C=C[C@@H](CO)C3)c2n1 | 0.24
* Clc1ccc([C@]23CNC[C@H]2C3)cc1Cl | 0.87
* O=C1NC(=O)/C(=C/c2ccc(-c3ccc(F)cc3O)o2)S1 | -0.46
* CSc1ccc2c(c1)N(CCC1CCCCN1C)c1ccccc1S2 (stereo not drawn) | -2.55
* CCCCOc1ccc(CC(=O)NO)cc1 | 0.49
* CC1(C)CC[C@]2(C(=O)O)CC[C@]3(C)C(=CC[C@@H]4[C@@]5(C)CC[C@H](O)C(C)(C)[C@@H]5CC[C@]43C)[C@@H]2C1 | 0.47
* Cc1cccc(Nc2ccccc2C(=O)O)c1C | 1.5
* NCCNC(=O)c1ccc(Cl)cn1 [lazabemide] | -0.23
* N#Cc1cc(-c2n[nH]c(-c3ccncc3)n2)ccn1 | 3.87
* CC1CS(=O)(=O)CCN1/N=C/c1ccc([N+](=O)[O-])o1 (stereo not drawn) | -1.28
* CC(C)[C@](O)(c1ccc2cc(OC(F)F)c(OC(F)F)cc2c1)c1c[nH]nn1 | 2.85
* NC(=O)[C@@H](CCC(F)(F)F)N(Cc1ccc(-c2ncon2)cc1F)S(=O)(=O)c1ccc(Cl)cc1 | -5.03
* Nc1ccncc1N | -2.67
* COc1cc2c(cc1OC)C(=O)C(CC1CCN(Cc3ccccc3)CC1)C2 (stereo not drawn) | -1.84
* CC1(CN2CCC(n3c(=O)[nH]c4ccccc43)CC2)OCc2ccccc2-n2cccc21 (stereo not drawn) [zaldaride] | 4.25
* CO[C@H]1CC[C@H](N(c2cc(C3=CCCCC3)sc2C(=O)O)C(=O)[C@H]2CC[C@H](C)CC2)CC1 | -0.07
* CCCC(=O)O[C@]1(C(=O)CO)CC[C@H]2[C@@H]3CCC4=CC(=O)CC[C@]4(C)[C@H]3[C@@H](O)C[C@@]21C [hydrocortisone-butyrate] | 3.36
* O=C(O)COc1cccc(CN(Cc2ccc(-n3cccn3)cc2)S(=O)(=O)c2cccnc2)c1 | -0.6

---

# Tested on: Vero E6 infected with SARS-CoV-2
# ASSAY: inhibition of SARS-CoV-2 cytopathic effect; higher = more antiviral protection, active = above 15
# ASSAY SETUP: 100 nM; 48 h
MEASURE: inhibition of SARS-CoV-2 cytopathic effect (%)

* CC(C)(C)C(=O)OCOC(=O)[C@@H]1N2C(=O)[C@@H](NC(=O)[C@H](N)c3ccccc3)[C@H]2SC1(C)C | 2.48
* CC[C@H]1[C@@H](O)[C@@H]2[C@H](CC[C@]3(C)[C@@H]([C@H](C)CCOS(=O)(=O)O)CC[C@@H]23)[C@@]2(C)CC[C@@H](O)C[C@@H]12 | -0.03
* Cc1cc(N2CCCCC2)nc2ccccc12 | -0.88
* Cn1cc(C(=O)c2cccc3ccccc23)cc1C(=O)O | 0.36
* CN(C)C/C=C/C(=O)Nc1ccc(C(=O)Nc2cccc(Nc3ncc(Cl)c(-c4c[nH]c5ccccc45)n3)c2)cc1 | -1.48
* Cc1cc(C(C)(C)C)cc(C)c1CC1=NCCN1 | -5.88
* COc1ncc2cc(C(=O)Nc3cc(C(=O)NCc4cccc(Cl)c4)ccc3Cl)c(=O)[nH]c2n1 | 0.99
* CC(C)(C)c1ccc(C(=O)Nc2cn3cc(-n4ccnc4)ccc3n2)cc1 | 2.27

---

# Test system: Vero E6 infected with SARS-CoV-2
# ASSAY: inhibition of SARS-CoV-2 cytopathic effect; higher = more antiviral protection, active = above 15
# ASSAY SETUP: 10000 nM; 48 h
// values below are reported inhibition of SARS-CoV-2 cytopathic effect
MEASURE: inhibition of SARS-CoV-2 cytopathic effect (%)

• Oc1cc2c(cc1O)C(c1ccccc1)CNCC2 (stereo not drawn) = 0.48
• CCC(=O)O[C@H]1[C@H](O[C@@H]2[C@@H](C)[C@H](O[C@H]3C[C@@](C)(OC)[C@@H](O)[C@H](C)O3)[C@@H](C)C(=O)O[C@H](CC)[C@@](C)(O)[C@H](O)[C@@H](C)C(=O)[C@H](C)C[C@@]2(C)O)O[C@H](C)C[C@@H]1N(C)C [erythromycin-estolate] = -0.99
• C=CC(=O)Nc1cccc(Nc2nc(Nc3ccc(NC4CN(CCF)C4)cc3OC)ncc2C(F)(F)F)c1 = -24.6
• CC(C)NC(=O)c1ccc(C#Cc2ccncc2)cn1 = 13.2
• CCCOC(=O)c1ccc(O)cc1 [propyl 4-hydroxybenzoate] = -3.05
• Cn1ncnc1COc1nn2c(-c3cc(F)ccc3F)nnc2cc1C(C)(C)C = 0.81
• O=C1C[C@@H](c2ccc(O)cc2)Oc2cc(O)cc(O)c21 = 0.31
• CN1Cc2ccccc2[C@@H]2c3cccc4[nH]cc(c34)C[C@H]21 = 2.21

---

# Test system: Vero E6 infected with SARS-CoV-2
# ASSAY: morphology score (similarity to uninfected cells); higher = more like uninfected cells
# ASSAY SETUP: 24 h
MEASURE: morphology score

• O=C(O)/C=C1\CCCc2ccccc2[C@H]1O (racemic) (10 µM) = 0.0116
• CSc1ccc(C(=O)/C=C/c2cc(C)c(OC(C)(C)C(=O)O)c(C)c2)cc1 [elafibranor] (10 µM) = 0.00446
• O=C(O)[C@@H]1C[C@@H](O)CN1 [L-hydroxyproline] (10 µM) = 0.203
• O=[N+]([O-])c1ccc2c(c1)S(=O)(=O)C=C2 [stattic] (0.833333 µM) = 0.148
• O=C1NC(=O)[C@@H](c2cn3c4c(cccc24)CCC3)[C@@H]1c1c[nH]c2ccccc12 [tivantinib] (10 µM) = -0.141

---

# Test system: Vero E6 infected with SARS-CoV-2
# ASSAY: morphology score (similarity to uninfected cells); higher = more like uninfected cells
# ASSAY SETUP: 24 h
MEASURE: morphology score

* Oc1cccc(Nc2ncc(F)c(Nc3cccc(O)c3)n2)c1 (0.833333 µM) | 0.183
* CCC(=O)O[C@@](Cc1ccccc1)(c1ccccc1)[C@@H](C)CN(C)C [levopropoxyphene] (10 µM) | -0.0577
* CC(C)c1ccc2c(c1)CC[C@H]1[C@](C)(CN)CCC[C@]21C [lylamine] (0.833333 µM) | -0.00872
* N[C@H](C(=O)O)[C@H](O)c1ccc(O)c(O)c1 [droxidopa] (10 µM) | -0.0971
* CC(C)(O)c1ccn2c(-c3ccc(F)c(-c4ccc(F)cc4C#N)c3)cnc2c1F (10 µM) | -0.0136

---

# Test system: Vero E6 infected with SARS-CoV-2
# ASSAY: inhibition of SARS-CoV-2 cytopathic effect; higher = more antiviral protection, active = above 15
# ASSAY SETUP: 1 nM; 48 h
Collected inhibition of SARS-CoV-2 cytopathic effect values appear next to each entry.
MEASURE: inhibition of SARS-CoV-2 cytopathic effect (%)

* COc1cc(Br)c(S(=O)(=O)Nc2ccc(C(F)(F)F)c(O[C@@H]3CCN(C)C3)c2)cc1OC | 1.05
* N=C(N)NCCSSCCNC(=N)N [guanidinoethyldisulfide-bicarbonate] | -2.83
* COC(=O)[C@@H]1C[C@H](OC(C)=O)C(=O)[C@H]2[C@@]1(C)CC[C@H]1C(=O)O[C@H](c3ccoc3)C[C@]21C | -2.48
* C[C@]12C=CC(=O)C=C1CC[C@@H]1[C@@H]2C(=O)C[C@@]2(C)[C@H]1CC[C@]2(O)C(=O)CO | -1.14
* CCS(=O)(=O)N1CCN(c2ccc(Nc3ncc(C(N)=O)c(NC4CC4)n3)cc2)CC1 | -1.63
* O=C(c1ccccn1)c1cnn2c(-c3ccncc3)ccnc12 | 0.32
* C[C@@H](NC(=O)[C@@H](N)Cc1ccc(O)cc1)C(=O)NCC(=O)N(C)[C@@H](Cc1ccccc1)C(=O)N[C@H](CO)CC[S+](C)[O-] (stereo partly drawn) | -0.57
* CCn1c2ccccc2c2cc(Nc3ccnc(NCCCN4CCOCC4)n3)ccc21 | -2.13
